Target: Cyclin-C (Homo sapiens)
Sequence (P24863 whole entry): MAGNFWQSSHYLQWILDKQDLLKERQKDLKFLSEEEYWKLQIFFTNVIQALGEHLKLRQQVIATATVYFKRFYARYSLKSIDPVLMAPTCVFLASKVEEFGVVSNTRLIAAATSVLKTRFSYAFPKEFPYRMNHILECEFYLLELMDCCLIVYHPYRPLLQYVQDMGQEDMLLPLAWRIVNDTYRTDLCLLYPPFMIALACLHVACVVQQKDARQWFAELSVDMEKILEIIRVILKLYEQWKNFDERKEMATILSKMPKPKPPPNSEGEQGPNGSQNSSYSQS
Experiment: Inhibition of recombinant full-length human His-tagged CDK8/cyclinC expressed in baculovirus expression system by Lantha screen assay
endpoint: IC50 (nM)
Hi! Could you send only the number? It should be in nM, unit omitted.

(Q) Return IC50 for the following molecule: CC1CCc2nc(N)c(C#N)c(-c3cccnc3)c2C1 (stereo unspecified)
(A) 500
